- measurementDescription: Urinary excretion of phenolic metabolites over 48 h after one 450 mg capsule of the supplement (UHPLC-ESI-MS/MS)
- Assay type: in vivo, human
- testConditions: urine, n = 10, mean ± SEM
readoutType: Urinary excretion 6–10 (h) (µg)

Some solved cases for reference:
O=C(O)[C@H]1O[C@@H](Oc2ccc3c(c2)oc(=O)c2ccc(O)cc23)[C@H](O)[C@@H](O)[C@@H]1O [compound 43]; 6.91
O=C1CCC(Cc2cccc(O[C@@H]3O[C@H](C(=O)O)[C@@H](O)[C@H](O)[C@H]3O)c2)O1 (some centres unmarked) [compound 17]; 169.91
O=C1CCC(Cc2cccc(OS(=O)(=O)O)c2)O1 (centres unmarked) [compound 23]; 175.24
O=C(O)[C@H]1O[C@@H](Oc2ccc3c(c2)oc(=O)c2ccccc23)[C@H](O)[C@@H](O)[C@@H]1O [compound 44]; 5.31
O=C(O)CCc1ccc(O)c(OS(=O)(=O)O)c1 [compound 41]; 41.08

1 = O=C1CCC(Cc2cc(O)cc(OC3OC(C(=O)O)C(O)C(O)C3O)c2)O1 (centres unmarked) [compound 10]
2 = O=C1CCC(Cc2cc(O)cc(OS(=O)(=O)O)c2)O1 (centres unmarked) [compound 16]
3 = O=C(O)C1OC(Oc2cc(CCO)ccc2O)C(O)C(O)C1O (centres unmarked) [compound 33]
Query: Which order do these items take when sorted by rising Urinary excretion 6–10 (h)? List them. Lab note: record answer as labels in requested order.
Reply: 3, 1, 2
(3: 38.02 µg, 1: 316.86 µg, 2: 1256.55 µg)

* * *

- measurementDescription: Plasma pharmacokinetics of phenolic metabolites after one 450 mg capsule of the supplement (UHPLC-ESI-MS/MS)
- Assay type: in vivo, human
- testConditions: n = 10, mean ± SEM
readoutType: Cmax (nM)

O=C1CCC(Cc2ccc(OS(=O)(=O)O)c(O)c2)O1 (stereo not drawn) [compound 21]; 40

a = O=C1CCC(Cc2cccc(OS(=O)(=O)O)c2)O1 (stereo not drawn) [compound 23]
b = O=C(O)c1ccc(O)c(OS(=O)(=O)O)c1 [compound 45]
Query: Of a and b , whose reported Cmax is numerically smaller? Give the chosen item's label as your response.
Reply: a
(a: 2.15 nM, b: 43.6 nM)

* * *

- measurementDescription: Plasma pharmacokinetics of phenolic metabolites after one 450 mg capsule of the supplement (UHPLC-ESI-MS/MS)
- Type: in vivo, human
- testConditions: n = 10, mean ± SEM
readoutType: Cmax (nM)

Study these solved cases before continuing.
O=C(O)CCc1cccc(O)c1.O=C(O)CCc1cccc(O)c1; 443
O=C(O)CNC(=O)c1ccc(O)cc1; 816
COc1ccc(C2CC(=O)c3c(O)cc(OC4OC(C(=O)O)C(O)C(O)C4O)cc3O2)cc1O (stereo not drawn); 19.9
O=C(O)CCc1ccc(O)c(OS(=O)(=O)O)c1; 18.2

1 = COc1cc(CCC(=O)O)ccc1OS(=O)(=O)O
2 = O=C1CCC(Cc2cc(O)cc(OC3OC(C(=O)O)C(O)C(O)C3O)c2)O1 (stereo not drawn)
3 = O=C(O)C1OC(Oc2cc(CCO)ccc2O)C(O)C(O)C1O (stereo not drawn)
4 = O=C1CCC(Cc2cc(O)cc(OS(=O)(=O)O)c2)O1 (stereo not drawn)
5 = O=C1CCC(Cc2cccc(O[C@@H]3O[C@H](C(=O)O)[C@@H](O)[C@H](O)[C@H]3O)c2)O1 (stereo partly drawn)
Query: # sort list by recorded Cmax, greatest to least // list labels; follow requested order
Reply: 1, 3, 2, 4, 5

* * *

- measurementDescription: Urinary excretion of phenolic metabolites over 48 h after one 450 mg capsule of the supplement (UHPLC-ESI-MS/MS)
- Assay type: in vivo, human
- testConditions: urine, n = 10, mean ± SEM
readoutType: Urinary excretion Total (0–48 h) (µg)

A selection of reference data follows.
O=C(O)CCc1cccc(O)c1.O=C(O)CCc1cccc(O)c1 [compound 40]; 1408.57
O=C1CCC(Cc2cccc(O[C@@H]3O[C@H](C(=O)O)[C@@H](O)[C@H](O)[C@H]3O)c2)O1 (some centres unmarked) [compound 17]; 1029.49

I = O=C(O)CCc1ccc(O)c(OS(=O)(=O)O)c1 [compound 41]
II = O=C1CCC(Cc2cccc(OS(=O)(=O)O)c2)O1 (centres unmarked) [compound 23]
III = O=C(O)C1OC(Oc2cc(CCO)ccc2O)C(O)C(O)C1O (centres unmarked) [compound 33]
Query: # ascending order, key=Urinary excretion Total (0–48 h) Order the labels as requested and give them as your answer.
Reply: III, II, I

* * *

- measurementDescription: Urinary excretion of phenolic metabolites over 48 h after one 450 mg capsule of the supplement (UHPLC-ESI-MS/MS)
- Assay type: in vivo, human
- testConditions: urine, n = 10, mean ± SEM
readoutType: Urinary excretion Total (0–48 h) (µg)

Past entries and their recorded results:
COc1ccc(C2CC(=O)c3c(O)cc(OC4OC(C(=O)O)C(O)C(O)C4O)cc3O2)cc1O (centres unmarked) [compound 28]; 148.81
O=C1CCC(Cc2cc(O)cc(OC3OC(C(=O)O)C(O)C(O)C3O)c2)O1 (centres unmarked) [compound 10]; 1595.23
COc1cc(C(=O)O)cc(OC)c1O.COc1cc(C(=O)O)cc(OC)c1O [compound 39]; 33.92
O=C(O)[C@H]1O[C@@H](Oc2ccc3c(c2)oc(=O)c2ccccc23)[C@H](O)[C@@H](O)[C@@H]1O [compound 44]; 295.17
O=C(O)c1ccc(O)c(OC2OC(C(=O)O)C(O)C(O)C2O)c1 (centres unmarked) [compound 35]; 60.16

1 = O=C1CCC(Cc2cc(O)cc(OS(=O)(=O)O)c2)O1 (centres unmarked) [compound 16]
2 = O=C(O)[C@H]1O[C@@H](Oc2ccc3c(c2)oc(=O)c2ccc(O)cc23)[C@H](O)[C@@H](O)[C@@H]1O [compound 43]
Query: Lab notebook, comparison: 1 versus 2 , higher Urinary excretion Total (0–48 h) goes to which? Respond with the label that goes with your answer.
Reply: 1
(1: 8957.33 µg, 2: 68.53 µg)

* * *

- measurementDescription: Urinary excretion of phenolic metabolites over 48 h after one 450 mg capsule of the supplement (UHPLC-ESI-MS/MS)
- Type: in vivo, human
- testConditions: urine, n = 10, mean ± SEM
readoutType: Urinary excretion 10–14 (h) (µg)

// solved cases for Urinary excretion 10–14 (h) follow
O=C(O)[C@H]1O[C@@H](Oc2ccc3c(c2)oc(=O)c2ccccc23)[C@H](O)[C@@H](O)[C@@H]1O; 39.56
O=C(O)CCc1ccc(O)c(OS(=O)(=O)O)c1; 56.67

a = O=C(O)[C@H]1O[C@@H](Oc2ccc3c(c2)oc(=O)c2ccc(O)cc23)[C@H](O)[C@@H](O)[C@@H]1O
b = O=C1CCC(Cc2cccc(O[C@@H]3O[C@H](C(=O)O)[C@@H](O)[C@H](O)[C@H]3O)c2)O1 (some centres unmarked)
Query: Of the two listed items, which has the higher Urinary excretion 10–14 (h)? First: a Second: b The response must carry the label of the picked entry.
Reply: b

I = O=C(O)CCc1cccc(O)c1.O=C(O)CCc1cccc(O)c1
II = O=C1CCC(Cc2cc(O)cc(OC3OC(C(=O)O)C(O)C(O)C3O)c2)O1 (centres unmarked)
Query: Hi team, can someone confirm which has the larger Urinary excretion 10–14 (h): I or II ? Thanks. Indicate which entry you chose by stating its label.
Reply: I

I = O=C(O)c1ccc(O)c(OC2OC(C(=O)O)C(O)C(O)C2O)c1 (centres unmarked)
II = O=C1CCC(Cc2ccc(OS(=O)(=O)O)c(O)c2)O1 (centres unmarked)
Query: Form: Entry with minimum Urinary excretion 10–14 (h) (choose one): I / II Pick one; state its label.
Reply: I
(I: 3.10 µg, II: 919.49 µg)

* * *

- measurementDescription: Plasma pharmacokinetics of phenolic metabolites after one 450 mg capsule of the supplement (UHPLC-ESI-MS/MS)
- Assay type: in vivo, human
- testConditions: supplemented volunteers (n = 10), 450 mg capsule, mean ± SEM
- Description: This study was designed as a 3-week randomized, double-blind, cross-over clinical trial. Eligible participants were randomized using simple block randomization of 1:1. […] Plasma and urine samples were analyzed by a UHPLC DIONEX Ultimate 3000 equipped with a triple quadrupole TSQ Vantage (Thermo Fisher Scientific Inc) fitted with a heated ESI (H-ESI) (Thermo Fisher Scientific Inc) probe, as previously reported. […]
readoutType: AUC0-24 (µM·h)

a = COc1cc(CCC(=O)O)ccc1OS(=O)(=O)O
b = O=C(O)c1ccc(O)c(OS(=O)(=O)O)c1
c = O=C1CCC(Cc2cccc(OS(=O)(=O)O)c2)O1 (stereo not drawn)
Query: Sort ascending by AUC0-24. Answer by listing the labels in the requested order.
Reply: c, b, a
